# MEASURED_TARGET: trypsin (Bos taurus, UniProt P00760)
# Construct: gene PRSS1
# Sequence (P00760 24-246): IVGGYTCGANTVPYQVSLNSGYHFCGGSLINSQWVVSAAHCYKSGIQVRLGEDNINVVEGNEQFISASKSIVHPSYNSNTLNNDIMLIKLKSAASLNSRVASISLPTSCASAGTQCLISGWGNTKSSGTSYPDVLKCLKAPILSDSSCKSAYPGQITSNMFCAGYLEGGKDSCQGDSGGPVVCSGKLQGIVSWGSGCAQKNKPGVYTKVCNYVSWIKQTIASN
# EXPERIMENT_DESCRIPTION: Inhibition of trypsin, determination of inhibition constants (Ki)
# Type: biochemical
Bridge positions count the residues as written; N and C are the ends. Peptide text beside a SMILES is read from it.
This listing pairs compounds with measured Ki.
// units = nM; emit number, no label

CC[C@H](C)[C@@H]1NC(=O)[C@H]([C@@H](C)O)NC(=O)[C@@H](NC(=O)[C@H](CCC(N)=O)NC(=O)[C@H](CCC(=O)O)NC(=O)[C@@H](N)C(C)C)CSSC[C@@H](C(=O)O)NC(=O)[C@H](CC(=O)O)NC(=O)[C@H](CCCCN)NC(=O)[C@H](C)NC(=O)[C@H](CC(=O)O)NC(=O)CNC(=O)[C@H]([C@@H](C)CC)NC1=O [SEQ ID NO: 3] (H-VEQCTIIGDAKDC-OH; disulfide 4-13)
63.6

Ki reading for CC[C@H](C)[C@@H]1NC(=O)[C@H](CCCCN)NC(=O)[C@H](CC(=O)O)NC(=O)[C@@H](NC(=O)[C@H](CCCNC(=N)N)NC(=O)[C@H](Cc2c[nH]cn2)NC(=O)[C@@H](N)CC(C)C)CSSC[C@@H](C(=O)O)NC(=O)[C@@H]2CCCN2C(=O)[C@H](CCCCN)NC(=O)[C@H](C)NC(=O)[C@H](CC(=O)O)NC(=O)[C@H](C)NC1=O [SEQ ID NO: 5] (H-LHRCDKIADAKPC-OH; disulfide 4-13) : 44

* * *

# MEASURED_TARGET: trypsin (Bos taurus, UniProt P00760)
# Construct: gene PRSS1
# EXPERIMENT_DESCRIPTION: Inhibition of trypsin, determination of inhibition constants (Ki)
# Type: biochemical
Bridge positions count the residues as written; N and C are the ends. Peptide text beside a SMILES is read from it.
This listing pairs compounds with measured pKi.
# pKi: negative log10 of molar concentration; output just the value

CC[C@H](C)[C@H](NC(C)=O)C(=O)N1CCC[C@H]1C(=O)N[C@@H](CCCNC(=N)N)C(=O)N[C@H]1CSSC[C@@H](C(N)=O)NC(=O)[C@H](CCSC)NC(=O)[C@H](CCCCN)NC(=O)[C@H](C(C)C)NC(=O)CNC(=O)[C@@H]2CCCN2C(=O)[C@H](CCSC)NC(=O)[C@H](CCCCN)NC(=O)[C@H](CCCNC(=N)N)NC1=O [SEQ ID NO: 9] (Ac-IPRCRKMPGVKMC-NH2; disulfide 4-13)
7.66

pKi reading for CC[C@H](C)[C@@H]1NC(=O)[C@H]([C@@H](C)O)NC(=O)[C@@H](NC(=O)[C@H](CCC(N)=O)NC(=O)[C@H](CCC(=O)O)NC(=O)[C@@H](N)C(C)C)CSSC[C@@H](C(=O)O)NC(=O)[C@H](CC(=O)O)NC(=O)[C@H](CCCCN)NC(=O)[C@H](CCC(=O)O)NC(=O)[C@H](CC(=O)O)NC(=O)CNC(=O)[C@H]([C@@H](C)CC)NC1=O [SEQ ID NO: 2] (H-VEQCTIIGDEKDC-OH; disulfide 4-13) : 7.62
